Target: alpha2B adrenergic receptors (Homo sapiens)
Sequence (P18089 whole entry): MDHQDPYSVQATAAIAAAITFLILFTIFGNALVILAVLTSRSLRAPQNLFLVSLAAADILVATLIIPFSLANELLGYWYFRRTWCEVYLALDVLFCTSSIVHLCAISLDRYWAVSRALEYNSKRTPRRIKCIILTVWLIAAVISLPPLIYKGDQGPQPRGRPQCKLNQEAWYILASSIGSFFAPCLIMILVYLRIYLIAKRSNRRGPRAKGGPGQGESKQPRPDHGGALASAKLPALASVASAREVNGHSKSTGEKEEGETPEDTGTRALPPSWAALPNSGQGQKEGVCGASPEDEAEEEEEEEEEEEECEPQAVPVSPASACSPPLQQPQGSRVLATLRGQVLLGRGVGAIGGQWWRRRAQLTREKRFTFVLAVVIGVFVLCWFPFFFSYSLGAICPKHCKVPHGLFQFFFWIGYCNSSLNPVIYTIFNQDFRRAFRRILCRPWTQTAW
Experiment: Receptor Selection and Amplification Technology (RSAT) assay, alpha2B
Settings: NA = not active at concentrations less than 10 micromolar, read-out: Alpha 2B EC50
Text: The imidazole-2-thione compounds of the invention are agonists of alpha2 adrenergic receptors, particularly they tend to be specific or selective agonists of alpha2B and/or to a lesser extent alpha2C adrenergic receptors, in preference over alpha2A adrenergic receptors. […] Al., 1995, Pharmacol. Toxicol. 76, pp. 308-311 (incorporated herein by reference) and is also described below. […]
pEC50: −log10 of the molar value.
measuredMetric: pEC50

Consider the following illustrative entries.
>>> testvalue("CC1=CCC(Cc2c[nH]c(=S)[nH]2)CC1 (stereo not drawn)")
7.21
>>> testvalue("Fc1ccc(C2=CCCC2Cc2c[nH]c(=S)[nH]2)cc1F (stereo not drawn)")
6.65

1. S=c1[nH]cc(CC2CCCc3cccnc32)[nH]1 (stereo not drawn)
2. C[C@@H]1c2ccccc2C[C@H]1c1c[nH]c(=S)[nH]1
3. CC1CC(Cc2c[nH]c(=S)[nH]2)c2ccccc21 (stereo not drawn)
Challenge: Sort these molecules on pEC50 so the largest reading comes first. Response field: labels, in requested order.
Response given: 2, 3, 1
